Where these numbers come from: patent US20230110378A1

Kindly state AUC for each of the entries shown.
- ASSAY_TEXT: Pharmacokinetic evaluation of compounds in mice (tail vein injection)
- Type: in vivo, Male CD-1 (ICR) mice
- MEASUREMENT_PARAMETERS: CD-1 (ICR), mouse; male CD-1 mice, intravenous injection, dose 10 mg/kg, plasma
Write the answer as a number in ng·h/mL, unit excluded.

# lookup: AUC of CC(C)(O/N=C(\C(=O)N[C@@H]1C(=O)N(S(=O)(=O)O)[C@@H]1CNC(=O)c1cc([C@@H]2CCN(CCNC(=O)c3ccc(O)c(O)c3Cl)C2)no1)c1csc(N)n1)C(=O)O [Compound I-35]
8530

Now consider Cc1c(O)c(=O)cc(C(=O)N2CC[C@@H](c3cc(C(=O)NC[C@@H]4[C@H](NC(=O)/C(=N\OC(C)(C)C(=O)O)c5csc(N)n5)C(=O)N4S(=O)(=O)O)on3)C2)n1O [Compound I-43] and answer again.
9660

Item: Cc1c(C(=O)N2CC[C@@H](c3cc(C(=O)NC[C@@H]4[C@H](NC(=O)/C(=N\OC(C)(C)C(=O)O)c5csc(N)n5)C(=O)N4S(=O)(=O)O)on3)C2)n(O)c(C)c(O)c1=O [Compound I-44]
17300
